Test system: Prostaglandin G/H synthase 2 (COX-2)
Assay info: Inhibition of COX-2 (unknown origin)-mediated TMPD oxidation using PGG2 as substrate at 100 uM incubated 15 mins prior to substrate addition measured after 36 secs by spectrophotometric analysis
Test context: Homo sapiens
Quantity measured: inhibition (%)
Number in %, nothing else.

Returns the measured inhibition for the input compound. Input: "COc1cc(NC(=O)c2nn3c(C(F)(F)F)cc(-c4ccc(Br)cc4)nc3c2Cl)cc([N+](=O)[O-])c1"
-2.2

Then this compound:
What does the data say about its inhibition? Entry: "CC1=NN(c2ccc([N+](=O)[O-])cc2)C(=O)/C1=N\Nc1ccccc1C(=O)O"
2.5

meta.source: ChEMBL document CHEMBL2331332
